Emax for assorted compounds
Molecular target: GK (glucokinase, residues 12-465) (Homo sapiens)
Construct: I.D. No. 1 corresponds to residues 12-465 of glucokinase; made in house; host or cells: DH10b-T1r E. coli
Sequence (P35557 with tags, fused parts or gaps isoform P35557-2): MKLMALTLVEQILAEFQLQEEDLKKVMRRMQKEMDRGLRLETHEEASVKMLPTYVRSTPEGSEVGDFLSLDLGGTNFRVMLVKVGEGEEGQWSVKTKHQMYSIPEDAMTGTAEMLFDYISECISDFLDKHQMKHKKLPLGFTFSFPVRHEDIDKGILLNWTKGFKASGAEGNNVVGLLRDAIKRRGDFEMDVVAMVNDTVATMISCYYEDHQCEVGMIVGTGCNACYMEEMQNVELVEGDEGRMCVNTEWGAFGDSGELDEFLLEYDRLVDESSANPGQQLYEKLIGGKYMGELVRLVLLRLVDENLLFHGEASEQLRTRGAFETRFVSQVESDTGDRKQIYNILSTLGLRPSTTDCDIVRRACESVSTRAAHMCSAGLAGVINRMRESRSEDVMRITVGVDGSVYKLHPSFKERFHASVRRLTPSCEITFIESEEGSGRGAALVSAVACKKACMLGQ
Test: enzymatic glucokinase activity assay (ATP consumption, KinaseGlo luminescence)
Assay type: biochemical
Conditions: calculated maximal gain in GK enzyme activity at a saturating concentration of the compound; 5 μM ATP, 5 mM Glucose; reported as bins; read-out: % ACTmax

Answered examples (2):
compound	result
O=C(Nc1ncc(Cl)s1)[C@H](CC1CCOCC1)n1ncc2cc(S(=O)(=O)C3CC3)ccc21	≥ 111%
COc1ccc2c(cnn2C(CC2CCOCC2)C(=O)Nc2ccn(C)n2)c1S(=O)(=O)C1CC1 (racemic)	90 to 100%

Input O=C(Nc1ncc(F)s1)[C@@H](CC1CCOCC1)n1cc(S(=O)(=O)C2CC2)cn1 , output reported Emax.
≤ 90%

Using the record for Cn1ccc(NC(=O)C(CC2CCOCC2)n2cc3c(S(=O)(=O)C4CC4)cc(Cl)cc3n2)n1 (stereo not drawn) , state its measured Emax.
≤ 90%

Give the reported value of Emax for this record: COc1ccc2c(cnn2[C@H](CC2CCOCC2)C(=O)Nc2ncc(F)s2)c1S(=O)(=O)C1CC1
101 to 105%

Note down Emax recorded for O=C(Nc1cnccn1)[C@H](CC1CCOCC1)n1ncc2c(S(=O)(=O)C3CC3)cccc21
101 to 105%

Tell me its Emax given COc1ccc2nc(NC(=O)[C@@H](CC3CCOCC3)n3ccc(S(=O)(=O)C4CC4)n3)sc2n1 as the entry.
≤ 90%

Read off the recorded Emax for N#Cc1cnc(NC(=O)[C@@H](CC2CCOCC2)n2ncc3c(S(=O)(=O)C4CC4)cccc32)s1
≤ 90%

Give the reported Emax for this compound. CS(=O)(=O)n1ccc(NC(=O)C(CC2CCOCC2)n2ncc3c(S(=O)(=O)C4CC4)cccc32)n1 (stereo not drawn)
≤ 90%

State, in one line, measured Emax of O=C(Nc1cnccn1)[C@H](CC1CCOCC1)n1ncc2c(S(=O)(=O)C3CC3)ccnc21
106 to 110%

Provide measured Emax value, entry: O=C(Nc1ncc(Cl)s1)C(CC1CCOCC1)n1ncc2cc(S(=O)(=O)C3CC3)ccc21 (racemic)
≥ 111%

Identify measured Emax associated with O=C(Nc1ncc(Cl)s1)[C@@H](CC1CCOCC1)n1cc(S(=O)(=O)C2CCCC2)cn1
101 to 105%

Give a short answer stating reported Emax for O=C(Nc1ncc(Cl)s1)C(CC1CCOCC1)n1ncc2c(S(=O)(=O)C3CC3)cc(F)cc21 (stereo not drawn) .
106 to 110%
